Where do the numbers come from? From patent US20070213359A1.

biological target: Ghrelin receptor (Homo sapiens); experiment: Receptor Selection and Amplification Technology (R-SAT) assay; format: cell-based; parameters: expressed in transfected cells; host or cells: NIH3T3; conditions: read-out: RSAT Eff(%)
Sequence (Q92847 whole entry): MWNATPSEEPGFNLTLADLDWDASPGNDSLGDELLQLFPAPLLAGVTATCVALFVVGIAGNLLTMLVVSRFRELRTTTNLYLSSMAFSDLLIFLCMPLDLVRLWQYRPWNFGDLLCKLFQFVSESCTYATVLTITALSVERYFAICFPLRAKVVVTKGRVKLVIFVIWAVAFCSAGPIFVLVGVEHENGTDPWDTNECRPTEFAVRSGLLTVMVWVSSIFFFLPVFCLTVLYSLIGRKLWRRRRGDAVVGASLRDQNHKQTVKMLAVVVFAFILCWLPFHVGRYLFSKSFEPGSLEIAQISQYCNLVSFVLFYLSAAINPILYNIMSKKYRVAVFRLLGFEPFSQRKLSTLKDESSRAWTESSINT
So I've got a bunch of compounds here, and I need their Emax values.
A number alone suffices; assume %.

Req: // Input: CC(=O)c1cn(CCCN2CCCN(CCc3ccccc3)CC2)c2c(Br)cccc12 . Output its Emax only.
Resp: 98

Req: Return the recorded Emax value; entry: COc1cccc2c(C(=O)NCc3cccc(C)c3)cn(CCCN3CCC(Oc4ccccc4Cl)CC3)c12
Resp: 96

Req: Tell us which Emax value is on record for COc1cccc2c(C(=O)C3CC3)cn(CCCN3CCC(c4nc(-c5cccnc5)no4)CC3)c12
Resp: 96

Req: Read the entry CCCCC(=O)c1cn(CCCN2C3CCC2CC(OCC2CC2)C3)c2ccc(OC)cc12 (stereo not drawn) and write its reported Emax.
Resp: 132

Req: Input CC(C)CC(=O)c1cn(CCCN2C3CCC2CC(OC2=CC=C(Cl)CC2)C3)c2ccccc12 (stereo not drawn) , output reported Emax.
Resp: 137

Req: Give recorded Emax. CCc1cccc2c(C(C)=O)cn(CCCN3CCC4(CC3)CC(=O)c3ccccc3O4)c12
Resp: 85

Req: Provide Emax value for the following compound: COc1cccc2c(C(C)=O)cn(CCCN3CCC(Oc4ccc(Cl)cc4)CC3)c12 [drawing 276]
Resp: 144

Req: Provide only the value of recorded Emax for COc1cccc2c(C(=O)C3CC3)cn(CCCNC3Cc4ccccc4C3)c12
Resp: 97

Req: Provide measured Emax value, entry: CC(=O)c1cn(CCCN2CCN(CCOc3ccc(Cl)c4ccccc34)CC2)c2c(C#N)cccc12
Resp: 53

###

target: Ghrelin receptor (Homo sapiens); test: Receptor Selection and Amplification Technology (R-SAT) assay; type: cell-based; design: expressed in transfected cells; host or cells: NIH3T3; conditions: […]; '—' not defined (nd used separately); read-out: RSAT pIC50 (converted)
Give IC50 for every item shown.
Kindly answer with a numeric value in nM, unit omitted.

Req: Name the recorded IC50 of the item COc1cccc2c(C(=O)NCC(C)C)cn(CCCNC3Cc4ccccc4C3)c12 in your answer.
Resp: 31.6

Req: # return recorded IC50 for entry COc1cccc2c(C(=O)Cc3ccccc3)cn(CCCNCCOc3ccccc3)c12
Resp: 50.1

Req: Please look at this compound and report its IC50: CC(=O)c1cn(CCCNC2Cc3ccccc3C2)c2c(C)cccc12
Resp: 158

Req: Report IC50, nothing else, for this compound: CCCCC[C@H]1C[C@H]2CC[C@@H](C1)N2CCCn1cc(C(C)=O)c2ccccc21
Resp: 100

Req: Give IC50 for COc1cccc2c(C(=O)NCc3cccc(C)c3)cn(CCCN3C4CCC3CC(Oc3ccc(Cl)cc3)C4)c12 (stereo not drawn)
Resp: 0.631

Req: Give IC50 for the following compound: COc1cccc2c(C(=O)C3CC3)cn(CCCN3CCC(Oc4ccccc4Cl)CC3)c12
Resp: 50.1

Req: Tell me measured IC50 for COc1cccc2c(C(=O)NCc3cccc(Cl)c3)cn(CCCN3C4CCC3CC(CC(=O)c3ccccc3)C4)c12 (stereo not drawn) please.
Resp: 79.4

Req: Consider the compound COc1cccc2c(C(=O)C3CC3)cn(CCCN3CCCN(CCc4ccccc4)CC3)c12 . State its measured IC50.
Resp: 1.26

Req: Consider the compound COc1cccc2c(C(=O)Cc3ccccc3)cn(CCCN3CCCN(Cc4ccc(F)cc4)CC3)c12 and give its recorded IC50.
Resp: 0.398

Req: Using the record for COc1cccc2c(C(=O)NCc3cccc(Cl)c3)cn(CCCNC3Cc4ccccc4C3)c12 , state its measured IC50.
Resp: 794

Req: Tell me its IC50 given COc1cccc2c(C(C)=O)cn(CCCN3C4CC[C@H]3C[C@@H](Oc3ccc(Cl)cc3)C4)c12 as the entry.
Resp: 10

Req: Please look at this compound and report its IC50: Cc1cccc(CNC(=O)c2cn(CCCN3C4CCC3CC(CCc3ccccc3)C4)c3ccccc23)c1 (stereo not drawn)
Resp: 316

Req: Give IC50 for the following compound: COc1cccc2c(C(C)=O)cn(CCCN3CCC(N(C4CC4)S(=O)(=O)c4ccccc4)CC3)c12
Resp: 15.8

Req: Consider the compound COc1cccc2c(C(=O)NCC(C)C)cn(CCCN3C4CCC3CC(CC(=O)c3ccc(Cl)cc3)C4)c12 (stereo not drawn) and give its recorded IC50.
Resp: 126

Req: Answer with the recorded IC50 of COc1cccc2c(C(=O)NCc3cccc(Cl)c3)cn(CCCN3[C@@H]4CC[C@H]3C[C@@H](CC(=O)c3ccccc3)C4)c12 only.
Resp: 50.1

Req: Report measured IC50; entry is CC(=O)c1cn(CCCN2CCCN(CCc3ccccc3)CC2)c2c(C)cccc12
Resp: 100

Req: Please give measured IC50 of the following entry: COc1cccc2c(C(=O)Cc3ccccc3)cn(CCCN3CCN(CCOc4ccc(Cl)cc4)CC3)c12
Resp: 7.94

Req: Supply measured IC50 of COc1cccc2c(C(=O)NCc3cccc(C)c3)cn(CCCN3CCN(c4ncc(C(F)(F)F)cc4Cl)CC3)c12 in your reply.
Resp: 39.8

Req: For the compound COc1cccc2c(C(=O)NCc3cccc(Cl)c3)cn(CCCN3CCC(Oc4ccc(F)cc4)CC3)c12 , report IC50.
Resp: 316

Req: Kindly indicate its recorded IC50. Item: COc1cccc2c(C(C)=O)cn(CCCN3CCC(Oc4ccc(Cl)cc4)CC3)c12 [drawing 276]
Resp: 5.01

Req: Check the records and state IC50 for CC(=O)c1cn(CCCN2CCCN(CCc3ccccc3)CC2)c2c(Br)cccc12
Resp: 3.98

Req: Using known records, supply IC50 for COc1cccc2c(C(=O)NCC(C)C)cn(CCCN3C4CCC3CC(CCc3ccccc3)C4)c12 (stereo not drawn)
Resp: 15.8

Req: Give me measured IC50, please, for this compound: COc1cccc2c(C(=O)C3CC3)cn(CCCN3CCC(CCOc4ccc(Cl)cc4)CC3)c12
Resp: 316

Req: Return reported IC50. Input compound: COc1cccc2c(C(=O)Cc3ccccc3)cn(CCCNC3Cc4ccccc4C3)c12
Resp: 50.1

Req: State its IC50 for this compound: CC(=O)c1cn(CCCNCCOc2ccccc2)c2c(Br)cccc12
Resp: 50.1

Req: Hello, please tell me recorded IC50 for this one: COc1cccc2c(C(=O)c3ccccc3)cn(CCCN3CCC(c4nc(-c5cccnc5)no4)CC3)c12
Resp: 39.8

Req: Output IC50 of COc1cccc2c(C(=O)Cc3ccccc3)cn(CCCN3CCN(Cc4ccc(Cl)cc4Cl)CC3)c12
Resp: 2

Req: Quick one: give measured IC50 for COc1cccc2c(C(=O)Cc3ccccc3)cn(CCCN3CCCC(Oc4ccc(Cl)cc4)C3)c12 (stereo not drawn)
Resp: 316

Req: Specify reported IC50 for the compound shown: COc1cccc2c(C(=O)NCc3cccc(Cl)c3)cn(CCCN3CCC(C(=O)c4ccccc4)CC3)c12
Resp: 2510

Req: Using the record for CC(=O)c1cn(CCCN2[C@@H]3CC[C@H]2C[C@@H](Oc2ccc(Cl)cc2)C3)c2ccccc12 , state its measured IC50.
Resp: 398

Req: Report IC50, nothing else, for this compound: COc1cccc2c(C(=O)Cc3ccccc3)cn(CCCN3C4CCC3CC(Oc3ccccc3Cl)C4)c12 (stereo not drawn)
Resp: 3.98

Req: Identify the reported IC50 for the following entry. COc1cccc2c(C(=O)C3CC3)cn(CCCN3CCC(c4nc(-c5ccncc5)no4)CC3)c12
Resp: 20

Req: Specify IC50 for COc1cccc2c(C(=O)c3ccccc3)cn(CCCN3CCN(CCOc4ccc(Cl)cc4)CC3)c12 and stop.
Resp: 1000

Req: Give the reported value of IC50 for this record: COc1cccc2c(C(=O)NCc3cccc(C)c3)cn(CCCN3CCN(CCOc4ccccc4)CC3)c12
Resp: 20

Req: Quote IC50 reported for COc1cccc2c(C(=O)NCc3cccc(Cl)c3)cn(CCCN3CCN(c4ncc(C(F)(F)F)cc4Cl)CC3)c12 please.
Resp: 39.8

Req: Supply recorded IC50 for COc1cccc2c(C(=O)NCc3cccc(C)c3)cn(CCCN3CCC(c4nc(-c5ccncc5)no4)CC3)c12 here.
Resp: 15.8
